# Test system: Plasmodium berghei (chloroquine sensitive strain)
# measurement-description: In vivo anti-malarial activity, 4-day suppressive test in infected mice
# measurement-context: 50 mg/kg daily for 4 days, intragastric, Swiss albino mice
metric-name: Day 6 % Suppression

Below: 3 compounds and their reported Day 6 % Suppression.
compound	metric-name	result
O=C(/C=C\c1ccc(O)cc1)OCC1O[C@@H](Oc2c(-c3ccc(O)cc3)oc3cc(O)cc(O)c3c2=O)C(O)[C@H](OC(=O)/C=C/c2ccc(O)cc2)[C@@H]1O (stereo partly shown) [Stenopalustroside D]	Day 6 % Suppression	58.3%
CC1O[C@@H](Oc2c(-c3ccc(O)cc3)oc3cc(O)cc(O)c3c2=O)C(OC(=O)/C=C/c2ccc(O)cc2)C(O)[C@H]1OC(=O)/C=C/c1ccc(O)cc1 (stereo partly shown)	Day 6 % Suppression	29.7%
O=C(/C=C/c1ccc(O)c(O)c1)OCC1O[C@@H](Oc2c(-c3ccc(O)cc3)oc3cc(O)cc(O)c3c2=O)C(O)C(O)[C@@H]1O (stereo partly drawn) [kaempferol 3-O-β-(6″-caffeoylglucoside)]	Day 6 % Suppression	45.9%

With those in mind, consider the next compound.
Query: Give Day 6 % Suppression for the following compound: O=C(/C=C/c1ccc(O)cc1)OC[C@H]1O[C@@H](Oc2c(-c3ccc(O)cc3)oc3cc(O)cc(O)c3c2=O)[C@H](O)[C@@H](O)[C@@H]1O [Tiliroside]
Result: 54.0%
